The binders listed here are annotated with their log10 Kd.
target: Feline_OSMR_hlgG1_Fc (feline); experiment: SPR Biacore
Sequence (chain, as listed by the source limits assumed, form in doubt): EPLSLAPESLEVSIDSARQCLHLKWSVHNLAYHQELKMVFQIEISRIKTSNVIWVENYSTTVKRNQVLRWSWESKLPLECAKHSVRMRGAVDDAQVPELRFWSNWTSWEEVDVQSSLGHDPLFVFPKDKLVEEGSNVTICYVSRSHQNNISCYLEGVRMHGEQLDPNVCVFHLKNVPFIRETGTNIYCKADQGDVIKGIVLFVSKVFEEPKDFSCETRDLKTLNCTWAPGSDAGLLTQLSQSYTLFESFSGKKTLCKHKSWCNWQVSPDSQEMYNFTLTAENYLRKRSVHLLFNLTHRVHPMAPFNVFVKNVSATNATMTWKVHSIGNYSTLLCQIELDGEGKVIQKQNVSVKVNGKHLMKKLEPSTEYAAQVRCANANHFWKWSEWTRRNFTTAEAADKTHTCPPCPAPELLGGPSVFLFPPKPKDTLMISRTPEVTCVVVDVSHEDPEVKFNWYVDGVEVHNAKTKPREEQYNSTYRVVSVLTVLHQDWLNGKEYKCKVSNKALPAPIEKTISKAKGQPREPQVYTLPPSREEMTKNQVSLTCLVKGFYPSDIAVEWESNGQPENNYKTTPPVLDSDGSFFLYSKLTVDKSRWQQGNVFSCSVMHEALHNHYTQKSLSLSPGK
experimental-endpoint: log10 Kd (log10 of the value in nM)

{"columns": ["binder", "measured-result"],
 "data": [
  ["Mu_19F07_VH (SEQ ID NO: 47)_Y33A (antibody, V domains shown) VH: EVKLVESEGGLVQPGSSMKLSCTASGFTFSDYAMAWVRQVPEKGLEWVANINYDGSSTYYLDSLKSRFIISRDNAKNILYLQMSSLKSEDTATYYCARGLTWDFDVWGTGTTVTVSS VL: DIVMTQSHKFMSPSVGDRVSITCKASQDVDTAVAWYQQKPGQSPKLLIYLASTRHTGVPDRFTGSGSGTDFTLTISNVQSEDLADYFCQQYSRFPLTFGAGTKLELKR", -0.39],
  ["Mu_02D09_VH (SEQ ID NO: 31)_Y101A (antibody, V domains shown) VH: EVQLVESGGGLVKPGGSLTLSCAASGFTFSDYGMHWLRQAPEKGLEWVAYISSGSRAVFFADTVKGRFTISRDNAKNTLFLQMTSLRSDDTAMYYCARDRADGRGFAYWGQGTLVTVSA VL: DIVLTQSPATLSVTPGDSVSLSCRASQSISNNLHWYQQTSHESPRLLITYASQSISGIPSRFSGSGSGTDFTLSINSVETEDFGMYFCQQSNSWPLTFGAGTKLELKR", 1.06],
  ["Mu_02D09_VH (SEQ ID NO: 31)_Y50A (antibody, V domains shown) VH: EVQLVESGGGLVKPGGSLTLSCAASGFTFSDYGMHWLRQAPEKGLEWVAAISSGSRAVFFADTVKGRFTISRDNAKNTLFLQMTSLRSDDTAMYYCARDRYDGRGFAYWGQGTLVTVSA VL: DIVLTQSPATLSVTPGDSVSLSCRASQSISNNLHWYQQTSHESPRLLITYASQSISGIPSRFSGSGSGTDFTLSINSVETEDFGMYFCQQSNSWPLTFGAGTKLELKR", -2.92],
  ["Mu_02D09_VH (SEQ ID NO: 31)_Y32A (antibody, V domains shown) VH: EVQLVESGGGLVKPGGSLTLSCAASGFTFSDAGMHWLRQAPEKGLEWVAYISSGSRAVFFADTVKGRFTISRDNAKNTLFLQMTSLRSDDTAMYYCARDRYDGRGFAYWGQGTLVTVSA VL: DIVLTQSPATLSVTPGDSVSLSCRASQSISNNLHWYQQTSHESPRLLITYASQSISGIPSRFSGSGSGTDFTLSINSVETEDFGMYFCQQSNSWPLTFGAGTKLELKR", 0.81],
  ["Mu_19F07_VL (SEQ ID NO: 49)_Q89A (antibody, V domains shown) VH: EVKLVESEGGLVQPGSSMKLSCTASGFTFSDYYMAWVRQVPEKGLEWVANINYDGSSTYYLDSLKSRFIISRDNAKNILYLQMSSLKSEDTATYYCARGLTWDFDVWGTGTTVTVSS VL: DIVMTQSHKFMSPSVGDRVSITCKASQDVDTAVAWYQQKPGQSPKLLIYLASTRHTGVPDRFTGSGSGTDFTLTISNVQSEDLADYFCAQYSRFPLTFGAGTKLELKR", -1.29]
]}
